The measured values listed here are drawn from the supplement of paper PMC9170038.

Tested on: MS2 coat protein
procedure.text: apparent KD of MS2 coat protein; higher = weaker reporter binding
setup.conditions: Eterna round: R107; input ligand: tryptophan 2.4 mM
outcome.measure: apparent KD of MS2 coat protein (nM)
# value in nM; strip the unit string

Examples with their reported apparent KD of MS2 coat protein follow.
# chain, readout.unit, test.result
data = [
    ("UGUAUGUGAUUUGAUACCAGAUCAGCUGGUUAUACAUGAGGAUCACCCAUGUUACUUUGGGUCCCUUGGCAGCAAAUCGCAUACU [SSTheo B #26]", "nM", 535),
    ("CGGCCCUCACACGAGGAUCACCCGUGUGAUACCAGCCUGGAAACAGGCCCUUGGCAGCACAAGGUCAUCAAAGAUGACCAAGCCG [TheoAX 22 #SwitchBubble]", "nM", 12.6),
]

API: value(readout=apparent KD of MS2 coat protein, system=MS2 coat protein) for record AUUGUCGCGUCGGCCGCCACUGUCAUGGUUUUCGUGGAACACAUGAGGAUCACCCAUGUAAUUGACAGGACCGGGACGUGGCGGC [Vevea] 12.2

====

System: MS2 coat protein
procedure.text: apparent KD of MS2 coat protein; designed switch direction (-1 OFF switch, 1 ON switch): -1; higher = weaker reporter binding
setup.conditions: input ligand: none
Here the recorded apparent KD of MS2 coat protein is given for each entry.
Write the value in nM as a bare number.

# chain, measurement.target, readout.unit, apparent KD of MS2 coat protein
measured = [
    ("AAAAGGCAAGCAUGAUCCCACAUGAGGAUCACCCAUGUGUUCGUCUUAUAGGCUGCUGAGGCUUUUGCCUCGGUGGC [LRO Sensor-off var1-05 loose mod of D91 from Mat747] (Eterna round: R97, puzzle: Sensor, turn-off variant 1)", "MS2 coat protein", "nM", 728),
]

Data request, read-out apparent KD of MS2 coat protein, for AGGUGAGCCGUCAGGAUAUGCGUUCCGUAGGGUCAGCAGAAGGGACAUGAGGAUCACCCAUGUUUCGCACGUGG [Veraxedi] (Eterna round: R96, puzzle: Brourd's mod of Exclusion 4) 31.5

Recorded apparent KD of MS2 coat protein of GUGACUGAUGUCAGGAUAUCCGGUGCUAAAGUACAGGAGAAGGGACAUGAGGAUCACCCAUGUAACUUAGCCAG [BmEX4 B.7] (Eterna round: R97, puzzle: Brourd's mod of Exclusion 4) , please. 15.4

Form field: reported apparent KD of MS2 coat protein of AACAACGUAGGAUAUGCAGCUACGGACUUGAGGAUCACCCAAGUGAUCAUAGCCCGUAUAGCAGAAGGGCGGAUCA [Arontebi] (Eterna round: R97, puzzle: Exclusion 5) 224

Value lookup for apparent KD of MS2 coat protein; key = GUCAGCUCGUGAGGAUAUACAUGCGUGCUUCGGCACGUAUGAUAGAUCACAUGAGGAUCACCCAUGUAGAAGGCACGAGCUGAC [ENG2/4-A1] (Eterna round: R96, puzzle: Exclusion NG 2) 12.9

Sample GUGCAACAUGAGGAUCACCCAUGUGAGGAUAUGCGAAUUUCAUCAAAAGAUGAAAUUUGCAGAAGGCACAGCAC [Omei Ex1 A13] (Eterna round: R97, puzzle: Exclusion 1) — what was its apparent KD of MS2 coat protein? 15.9

====

Test system: MS2 coat protein
procedure.text: apparent KD of MS2 coat protein; designed switch direction (-1 OFF switch, 1 ON switch): 1; higher = weaker reporter binding
setup.conditions: input ligand: microRNA oligo, concentration not stated
Assign T whenever apparent KD of MS2 coat protein does not fall below 70 nM; assign F whenever it does.

Some solved cases for reference:
# chain, cat
records = [
    ("AUACUCAUGUAAGGAUAUGCAGCCGUUUCGGCUGCAGAAGGUACUAUAAUACAUGAGGAUCACCCAUGUCUCUAUUAUUUAGUU [JL SSNG1 1.46] (Eterna round: R96, puzzle: Same State NG 1)", "F"),
    ("UAGGAACAUGAGGAUCACCCAUGUACCUCAUAUGGAGAAACACAGGAUAUACUUAGCGAAAGAGAGUAGAAGGGUGAAGAGAGG [Default title] (Eterna round: R96, puzzle: Same State NG 3)", "F"),
    ("AUAGUGUACGCAGGAUAUCGAUGAGGAACAUGAGGAUCACCCAUGUUGUGAGGAUCACCCAUGUAUGAGAAGGGCGACCCAUGU [Same State NG2 S1] (Eterna round: R96, puzzle: Same State NG 2)", "F"),
    ("GGACGUCACUCAAACAAUUAAACAUGAGGAUCACCCAUGUCACAGGAUAUGGAUCCUAAUUGGAUCCAGAAGGGUGAGACGUCC [Fiskers NG3ss - 41] (Eterna round: R96, puzzle: Same State NG 3)", "T"),
]

Form field: apparent KD of MS2 coat protein at least 70 nM? Entry: AAUUAAGAUCUAGGAUAUCACGUCGAUUAGACGUGAGAAGGAGAUCAUAACAUGAGGAUCACCCAUGUAUUACAUGAAUUAAUU [SSNG1/6-B2] (Eterna round: R96, puzzle: Same State NG 1) F
